Values were extracted from PubChem BioAssay (NCI).

Reported growth values for the following molecules.
System: RXF 393 renal
Test: NCI-60 one-dose screen, 48 h (100 = growth as untreated, 0 = no growth, -100 = all killed)
Experimental parameters: 1 µM
This is part of a sample that, as a whole, favours compounds with a hit. Of some 83,000 tested, about 20% had one in any assay.
Just the number in %, nothing appended.

Return reported growth. Input molecule: CC/C(=C(\c1ccc(O)cc1)c1ccc(OCCN(C)C(=O)CCOCCNC(=O)c2ccc3c(c2)CN([C@@H]2CCC(=O)NC2=O)C3=O)cc1)c1ccccc1
102

Return reported growth. Input molecule: CC/C(=C(/c1ccc(O)cc1)c1ccc(OCCN(C)C(=O)COCCOCCNC(=O)c2ccc3c(c2)CN([C@@H]2CCC(=O)NC2=O)C3=O)cc1)c1ccccc1
98.3

Return reported growth. Input molecule: CC/C(=C(\c1ccc(O)cc1)c1ccc(OCCN(C)C(=O)COCCNC(=O)Cc2ccc3c(c2)CN([C@@H]2CCC(=O)NC2=O)C3=O)cc1)c1ccccc1
100

Return reported growth. Input molecule: CC/C(=C(\c1ccc(O)cc1)c1ccc(OCCNC)cc1)c1ccccc1
103

----------
System: DU-145 prostate
Test: NCI-60 one-dose screen, 48 h
Experimental parameters: 10 µM unless noted
This is part of a sample that, as a whole, favours compounds with a hit. Of some 83,000 tested, about 20% had one in any assay. Calls of active or inactive are those of the source. The calls were made as follows: active = growth percent below 10; inactive = the rest.
In this exercise, the only acceptable responses are active, inactive

Fill in: this test's call for CN1CCc2c(sc3ncnc(N/N=C/c4cccc(Cl)c4Cl)c23)C1 is ___
active

Fill in: this test's call for N#Cc1cc(-c2ccnc(Nc3ccc(N4CCN(C5COC5)CC4)cc3)n2)ccc1N1CCCC1 is ___
inactive

Fill in: this test's call for COc1c2c(c(Br)c3c1C(CCc1ccccc1)N(C)CC3)OCO2 (stereo not given) is ___
inactive

Fill in: this test's call for Cc1cccc(C)c1Nc1nnc(-c2c[nH]c3ccccc23)o1 is ___
inactive

Fill in: this test's call for C=CCSc1nnc(-c2ccc(-c3nc4ccccc4[nH]3)cc2)o1 is ___
inactive

----------
System: OVCAR-4 ovarian
Test: NCI-60 one-dose screen, 48 h (100 = growth as untreated, 0 = no growth, -100 = all killed)
Experimental parameters: 10 µM unless noted
This is part of a sample that, as a whole, favours compounds with a hit. Of some 83,000 tested, about 20% had one in any assay. Activity calls are given as the source filed them. How the source made its calls: active means growth percent below 10; inactive means the rest.
Measured endpoint: growth

# annotated cases, reported growth shown
[
  {
    "Compound": "ClC(Cn1ncc2c(Nc3cccc(Br)c3)nc(SCCN3CCOCC3)nc21)c1ccc(Br)cc1 (centres undefined)",
    "Target under test": "OVCAR-4 ovarian",
    "growth": "34.6% (inactive)"
  },
  {
    "Compound": "O=C(CSc1nnc(-c2ccc(-c3nc4ccc(Cl)cc4[nH]3)cc2)o1)Nc1ccccc1",
    "Target under test": "OVCAR-4 ovarian",
    "growth": "37.9% (inactive)"
  },
  {
    "Compound": "COc1ccc2c(c1)C(Sc1ccc(Cl)cc1)c1c(nc(N)c(C#N)c1N)O2 (centres undefined)",
    "Target under test": "OVCAR-4 ovarian",
    "growth": "73.5% (inactive)"
  },
  {
    "Compound": "COc1ccc(NC(=O)Nc2nc3ccc([N+](=O)[O-])cc3s2)cc1",
    "Target under test": "OVCAR-4 ovarian",
    "growth": "15.2% (inactive)"
  },
  {
    "Compound": "Oc1cncc(-c2ccc3ncnc(N4CCc5cc(F)c(Cl)cc54)c3c2)c1",
    "Target under test": "OVCAR-4 ovarian",
    "growth": "40.6% (inactive)"
  }
]

Return reported growth. Input compound: O=C(CSc1nnc(-c2ccc(-c3nc4ccccc4[nH]3)cc2)o1)Nc1ccc(Br)cc1
54.3% (inactive)

Return reported growth. Input compound: COc1ccc2[nH]cc(-c3cc(N)n4nc(-c5c[nH]c6ccccc56)cc4n3)c2c1
30.9% (inactive)

Return reported growth. Input compound: Cc1ccc(Cl)cc1NC(=O)Nc1nc2ccc([N+](=O)[O-])cc2s1
7.05% (active)

Return reported growth. Input compound: O=C(CSc1nc2sc3c(c2c(=O)n1-c1ccc(Cl)cc1)CCCC3)NNC(=O)c1ccc(F)cc1
83.9% (inactive)

----------
Tested on: OVCAR-3 ovarian
Test: NCI-60 one-dose screen, 48 h (100 = growth as untreated, 0 = no growth, -100 = all killed)
Experimental parameters: 10 µM unless noted
This is part of a sample that, as a whole, favours compounds with a hit. Of some 83,000 tested, about 20% had one in any assay.
In plain terms, low growth, meaning strictly below 60%, gives 1 (yes), and everything else gives 0 (no).

Known results for compounds:
[
  {
    "Compound": "O=C(O)CC1S/C(=N/N=C/c2nc3ccccc3s2)NC1=O (centres undefined)",
    "Target under test": "OVCAR-3 ovarian",
    "Label class": "0 (no)"
  },
  {
    "Compound": "COc1c(B(O)O)cccc1-c1nc2ccc3cn[nH]c3c2c2c1CCCC2",
    "Target under test": "OVCAR-3 ovarian",
    "Label class": "1 (yes)"
  }
]

Determine if C/C(=N\Nc1ccc(S(N)(=O)=O)cc1)c1cnn(-c2cc(=O)[nH]c3ccc(Br)cc23)c1C shows growth strictly lower than 60%.
1 (yes)

Determine if Cc1nn(-c2ccccc2)c2nc(C)n(CC(=O)N/N=C/c3ccccc3O)c(=O)c12 shows growth strictly lower than 60%.
1 (yes)

----------
System: KM12 colon
Test: NCI-60 one-dose screen, 48 h
Experimental parameters: 10 µM unless noted
Procedure: Growth inhibition of the KM12 human tumor cell line is measured as a screen for anti-cancer activity. Cells are grown in 96 well plates and exposed to the test compound for 48 hours. Compounds are tested at a single concentration, which is 10^-5 M for most compounds. The reported endpoint is percent growth (GI% or GIPRCNT), where numbers from 0 - 100% represent growth inhibition, and numbers from -100% - 0 represent cell death. For example, a value of 40 represents 60% growth inhibition. […]
The panel holds about 83,000 compounds, 20% with a hit somewhere; the sample as a whole holds those more often. Activity calls are given as the source filed them. The calls were made as follows: active = growth percent below 10; inactive = the rest.
In this exercise, the only acceptable responses are 1 = active, -1 = inactive

Known results for molecules:
[
  {
    "Molecule": "COc1cncc(-c2ccc3ncnc(N4CCc5ccc(Cl)cc54)c3c2)c1",
    "Label class": -1
  },
  {
    "Molecule": "COc1c(F)ccc(C(=O)Nc2ccc3nc(NC(=O)C4CCCN(S(=O)(=O)c5ccc(C(C)(C)C)cc5)C4)sc3c2)c1F (stereo not given)",
    "Label class": -1
  },
  {
    "Molecule": "O=C(c1ccc(O)cc1)C1[C@H](c2ccccc2Br)[C@@H](c2ccccc2)NC12C(=O)Nc1ccccc12 (stereo not given in full)",
    "Label class": -1
  },
  {
    "Molecule": "COc1ccc(/C=C/C(=O)c2ccc(OC)c(S(N)(=O)=O)c2)c(C(F)(F)F)c1",
    "Label class": 1
  },
  {
    "Molecule": "CCc1ccccc1NC(=O)N/C(N)=N/c1nc2ccccc2s1",
    "Label class": 1
  }
]

Fill in: this test's call for C/C(=N/O)c1ccc(NC(=O)CSc2nnc(-c3ccc4nc(-c5ccc(Cl)cc5)[nH]c4c3)o2)cc1 is ___
-1

Fill in: this test's call for COc1ccc(NC(=O)N/N=C/c2c[nH]c3ccccc23)cc1 is ___
-1

Fill in: this test's call for COc1ccc2[nH]c(O)c(N=Nc3nc(-c4ccc(Cl)cc4)cs3)c2c1 is ___
1

Fill in: this test's call for CC[C@]12C=CCN3CC[C@@]4(c5ccc(OC)cc5N(C)[C@H]4[C@@](O)(C(=O)OC)[C@@H]1OC(=O)CCCC[P+](c1ccc(F)cc1)(c1ccc(F)cc1)c1ccc(F)cc1)[C@@H]32 is ___
-1

----------
Test system: MALME-3M melanoma
Test: NCI-60 one-dose screen, 48 h (100 = growth as untreated, 0 = no growth, -100 = all killed)
Experimental parameters: 10 µM unless noted
The panel holds about 83,000 compounds, 20% with a hit somewhere; the sample as a whole holds those more often.
In plain terms, low growth, meaning strictly below 80%, gives YES, and everything else gives NO.

Known results for compounds:
[
  {
    "Compound": "COc1ccc(N=Nc2c(N)nn3c(-c4cc5ccccc5oc4=O)ccnc23)cc1",
    "Label class": "YES"
  },
  {
    "Compound": "COC(=O)CSC1=C(C)C(=O)C(OC)=C(OC)C1=O",
    "Label class": "NO"
  },
  {
    "Compound": "Cc1ccc(Cl)cc1NC(=O)N/C(N)=N/c1nc2ccccc2s1",
    "Label class": "YES"
  },
  {
    "Compound": "COc1ccc(-c2nc3ccc(-c4nnc(SCC(=O)Nc5ccc(/C(C)=N\\O)cc5)o4)cc3[nH]2)cc1",
    "Label class": "YES"
  },
  {
    "Compound": "FC(F)(F)CN1CCN(CCn2c(C(F)(F)F)cc3c(Cl)ncnc32)CC1",
    "Label class": "YES"
  },
  {
    "Compound": "CC(C)(C)C(=O)c1c2c(c3ccc4c5ccccc5ccc4n13)C(=O)c1ccccc1C2=O",
    "Label class": "YES"
  },
  {
    "Compound": "O=C1Nc2cc(-c3ccc(NS(=O)(=O)c4ccc(-c5ccccc5)cc4)cc3)ccc2/C1=C/c1ccc[nH]1",
    "Label class": "YES"
  },
  {
    "Compound": "COc1ccc(C2=Nc3c(N)nc(N)nc3NC(c3ccc(Oc4nc(Nc5ccc(F)cc5)nc(N(C)C)n4)c(OC)c3)C2)cc1 (centres undefined)",
    "Label class": "NO"
  },
  {
    "Compound": "O=C1Nc2cc(-c3ccc(NS(=O)(=O)c4ccc(F)c(Cl)c4)cc3)ccc2/C1=C/c1ccc[nH]1",
    "Label class": "YES"
  },
  {
    "Compound": "Cc1nn(-c2ccccc2)c2nc(C)n(C(=O)N/N=C/c3cccc([N+](=O)[O-])c3)c(=O)c12",
    "Label class": "YES"
  }
]

Determine if C/C(=N/O)c1ccc(NC(=O)CSc2nnc(-c3ccc4nc(-c5ccc(Cl)cc5)[nH]c4c3)o2)cc1 shows growth strictly lower than 80%.
YES

Determine if Nc1nnc(-c2cncc(Br)c2)c(-c2c[nH]c3ccc(Cl)cc23)n1 shows growth strictly lower than 80%.
NO

Determine if Cc1ccc(C(=O)Nc2cc(-c3ccccc3)cc(C(F)(F)F)c2)cc1C#Cc1cnc2cccnn12 shows growth strictly lower than 80%.
YES

Determine if O=C(NNC(=S)NCCc1ccccc1)c1ccc(OCc2nc3ccc(Cl)cc3[nH]2)cc1 shows growth strictly lower than 80%.
YES

Determine if O=C(NN1C(=O)/C(=C/C=C/c2ccc([N+](=O)[O-])o2)SC1=S)c1ccc(O)cc1 shows growth strictly lower than 80%.
YES

Determine if C[C@@H]1[C@H]2C[C@@H](C[C@H]1NCc1nc3ccccc3n1C1CCCCCC1)C2(C)C shows growth strictly lower than 80%.
YES
